Biological target: protein farnesyltransferase (Rattus norvegicus, UniProt Q02293+Q04631)
Construct: The enzyme is purified according to Reiss, Y., et al., Cell, 62: 81-88 (1990), utilizing steps one through three; from tissue; host or cells: rat brain
Sequence (Q02293 whole entry, one chain of several): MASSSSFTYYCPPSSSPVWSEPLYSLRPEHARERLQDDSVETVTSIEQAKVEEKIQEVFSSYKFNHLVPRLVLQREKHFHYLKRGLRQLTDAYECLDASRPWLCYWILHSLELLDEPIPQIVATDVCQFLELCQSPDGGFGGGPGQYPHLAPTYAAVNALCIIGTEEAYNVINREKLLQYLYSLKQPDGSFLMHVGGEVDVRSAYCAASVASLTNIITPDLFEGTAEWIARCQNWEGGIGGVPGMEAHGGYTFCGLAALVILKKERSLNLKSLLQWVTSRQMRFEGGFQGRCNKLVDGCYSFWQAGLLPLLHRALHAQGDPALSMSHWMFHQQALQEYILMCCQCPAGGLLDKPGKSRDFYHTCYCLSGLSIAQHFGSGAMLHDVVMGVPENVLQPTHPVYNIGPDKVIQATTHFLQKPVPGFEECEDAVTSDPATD
Experiment: Inhibition of farnesyltransferase (scintillation proximity assay, rat brain enzyme, biotin-K Ras B fragment substrate)
Format: biochemical
Conditions: read-out: % inhibition of farnesyltransferase at 1 × 10^-6 M; 1 × 10^-6 M (Table 2)
Structures can show the parent of a compound that is named as a salt.
RESULT TYPE: inhibition at 1 µM (%)

{"columns": ["COMPOUND", "inhibition at 1 µM [%]"],
 "data": [
  ["CSCC[C@H](NC(=O)c1ccc(CCc2cccc3ccccc23)cc1-c1ccccc1C)C(=O)O [Example 467, lithium salt]", 97],
  ["CSCC[C@H](NC(=O)c1ccc(CN(C2CC2)C2(CC3CCCCC3)CC2)cc1-c1ccccc1C)C(=O)O", 98],
  ["Cc1ccccc1-c1cc(CN(C2CC2)C2(Cc3ccccc3)CCCC2)ccc1C(=O)N[C@@H](CCS(C)(=O)=O)C(=O)O", 91],
  ["CSCC[C@H](NC(=O)c1ccc(CN(C(C)C)C2(CC3CCCCC3)CC2)cc1-c1ccccc1C)C(=O)O", 91],
  ["CSCC[C@H](NC(=O)c1ccc(CCc2ccccc2-c2ccccc2)cc1-c1ccccc1C)C(=O)O [Example 452, lithium salt]", 96],
  ["CSCC[C@H](NC(=O)c1ccc(C=CCc2ccc3ccccc3c2)cc1-c1ccccc1C)C(=O)O (mixture of isomers)", 93],
  ["CSCC[C@H](NC(=O)c1ccc(CN(C2CC2)C(C)(C)Cc2ccccc2)cc1-c1ccccc1C)C(=O)O", 93]
]}

====

Target: protein farnesyltransferase (Rattus norvegicus, UniProt Q02293+Q04631)
Construct: The enzyme is purified according to Reiss, Y., et al., Cell, 62: 81-88 (1990), utilizing steps one through three; from tissue; host or cells: rat brain
Experiment: Inhibition of farnesyltransferase (scintillation proximity assay, rat brain enzyme, biotin-K Ras B fragment substrate)
Format: biochemical
Conditions: 1 × 10^-5 M (Table 1)
RESULT TYPE: % inhibition of farnesyltransferase at 1 × 10^-5 M (%)

{"columns": ["MOLECULE", "TESTED TARGET", "OBSERVED VALUE"],
 "data": [
  ["CSCC[C@H](NC(=O)c1ccc(CN[C@H](CC2CCCCC2)[C@H](O)[C@H](O)CC(C)C)cc1-c1ccccc1)C(=O)O", "protein farnesyltransferase (Rattus norvegicus, UniProt Q02293+Q04631)", 67],
  ["CSCC[C@H](NC(=O)c1ccc(CNc2ccc(C3CCCCC3)cc2)cc1-c1ccccc1)C(=O)O", "protein farnesyltransferase (Rattus norvegicus, UniProt Q02293+Q04631)", 74],
  ["CSCC[C@H](NC(=O)c1ccc(CNCCN2CCCCC2)cc1-c1ccccc1)C(=O)O", "protein farnesyltransferase (Rattus norvegicus, UniProt Q02293+Q04631)", 83],
  ["CSCC[C@H](NC(=O)c1ccc(CNc2ccc3ncccc3c2)cc1-c1ccccc1)C(=O)O", "protein farnesyltransferase (Rattus norvegicus, UniProt Q02293+Q04631)", 76],
  ["C=C[C@@H](CC1CCCCC1)NCc1ccc(C(=O)N[C@@H](CCSC)C(=O)O)c(-c2ccccc2)c1", "protein farnesyltransferase (Rattus norvegicus, UniProt Q02293+Q04631)", 75]
]}

I. CSCC[C@H](NC(=O)c1ccc(NC(=O)c2cccc(N(C)C)c2)cc1-c1ccccc1)C(=O)O
II. CSCC[C@H](NC(=O)c1ccc(CNCCc2cccs2)cc1-c1ccccc1)C(=O)O
Q. Of I and II , which carries the smaller reported % inhibition of farnesyltransferase at 1 × 10^-5 M figure? Answer by stating the label of the chosen item.
A. I

1. CSCC[C@H](NC(=O)c1ccc(CNc2cccc(CCC(=O)O)c2)cc1-c1ccccc1)C(=O)O
2. CSCC[C@H](NC(=O)c1ccc(CNc2ccc(C(=O)c3ccccc3)cc2)cc1-c1ccccc1)C(=O)O
Q. Compare the recorded % inhibition of farnesyltransferase at 1 × 10^-5 M of 1 and 2 ; state which is larger. Answer by stating the label of the chosen item.
A. 2
(2: 79%, 1: 55%)

A. CSCC[C@H](NC(=O)c1ccc(CNc2ccccc2N(C)C)cc1-c1ccccc1)C(=O)O
B. CSCC[C@H](NC(=O)c1ccc(CNc2cc(C)ns2)cc1-c1ccccc1)C(=O)O
Q. Compare the recorded % inhibition of farnesyltransferase at 1 × 10^-5 M of A and B ; state which is larger. Answer by stating the label of the chosen item.
A. B
(B: 76%, A: 48%)

I. CSCC[C@H](NC(=O)c1ccc(CNc2nnc(C)s2)cc1-c1ccccc1)C(=O)O
II. CSCC[C@H](NC(=O)c1ccc(CNCCC2CCCCC2)cc1-c1ccccc1)C(=O)O
Q. Compare the recorded % inhibition of farnesyltransferase at 1 × 10^-5 M of I and II ; state which is larger. Answer by stating the label of the chosen item.
A. I
(I: 66%, II: 43%)

I. CSCC[C@H](NC(=O)c1ccc(CNc2ccc(-c3ccccc3)cc2)cc1-c1ccccc1)C(=O)O
II. COc1cc(I)c(C(=O)Nc2ccc(C(=O)N[C@@H](CCSC)C(=O)O)c(-c3ccccc3)c2)cc1OC
Q. Of I and II , which carries the smaller reported % inhibition of farnesyltransferase at 1 × 10^-5 M figure? Answer by stating the label of the chosen item.
A. II

1. CSCC[C@H](NC(=O)c1ccc(CNc2ccc(F)cc2)cc1-c1ccccc1)C(=O)O
2. CSCC[C@H](NC(=O)c1ccc(CNc2cccc(CC(=O)O)c2)cc1-c1ccccc1)C(=O)O
Q. Of 1 and 2 , which carries the smaller reported % inhibition of farnesyltransferase at 1 × 10^-5 M figure? Answer by stating the label of the chosen item.
A. 2

====

Target: protein farnesyltransferase (Rattus norvegicus, UniProt Q02293+Q04631)
Construct: The enzyme is purified according to Reiss, Y., et al., Cell, 62: 81-88 (1990), utilizing steps one through three; from tissue; host or cells: rat brain
Assay: Inhibition of farnesyltransferase (scintillation proximity assay, rat brain enzyme, biotin-K Ras B fragment substrate)
Type: biochemical
Details: read-out: % inhibition at 0.01 μM (**); Table 6, ** = 0.01 μM (footnote); title prints 0.01 mM
Description: The ability of the compounds of the invention to inhibit protein farnesyltransferase or protein geranylgeranyltransferase can be measured according to the method of Moores, et al., J. Biol. Chem. 266: 14603 (1991) or the method of Vogt, et al., J. Biol. Chem. 270:660-664 (1995). […] In addition, in vitro inhibition of protein farnesyltransferase may be measured by the following procedure. […] The % inhibition of protein farnesyltransferase was determined for representative compounds of the invention.
Counter-ions that a name gives are not always drawn.
RESULT TYPE: inhibition at 0.01 µM (%)

{"columns": ["MOLECULE", "TESTED TARGET", "inhibition at 0.01 µM [%]"],
 "data": [
  ["CSCC[C@H](NC(=O)c1ccc(CC(CO)CCC2CCCCC2)cc1-c1ccccc1C)C(=O)O (some centres unmarked) [Example 1299, Lithium Salt]", "protein farnesyltransferase (Rattus norvegicus, UniProt Q02293+Q04631)", 96],
  ["CSCC[C@H](NC(=O)c1ccc(Cc2nnnn2CC2CCCCC2)cc1-c1ccccc1C)C(=O)O [Example 1100]", "protein farnesyltransferase (Rattus norvegicus, UniProt Q02293+Q04631)", 82],
  ["CSCC[C@H](NC(=O)c1ccc(CN2CCC[C@H]2COC2CCCCC2)cc1-c1ccccc1C)C(=O)O [Example 1116]", "protein farnesyltransferase (Rattus norvegicus, UniProt Q02293+Q04631)", 91],
  ["CSCC[C@H](NC(=O)c1ccc(CN2CCSC[C@H]2COCC2CCCCC2)cc1-c1ccccc1C)C(=O)O [Example 1111]", "protein farnesyltransferase (Rattus norvegicus, UniProt Q02293+Q04631)", 63],
  ["CSCC[C@H](NC(=O)c1ccc(C/C(=C\\c2cncs2)COc2cc(F)cc(F)c2)cc1-c1ccccc1C)C(=O)O [Example 1163, Lithium Salt]", "protein farnesyltransferase (Rattus norvegicus, UniProt Q02293+Q04631)", 73],
  ["CSCC[C@H](NC(=O)c1ccc(CN2CCN(Cc3ccccc3)CC2)cc1-c1ccccc1C)C(=O)O [Example 1025]", "protein farnesyltransferase (Rattus norvegicus, UniProt Q02293+Q04631)", 91],
  ["CSCC[C@H](NC(=O)c1ccc(CN2CCC[C@@H]2COCC2CCCCC2)cc1-c1ccccc1C)C(=O)O [Example 1119]", "protein farnesyltransferase (Rattus norvegicus, UniProt Q02293+Q04631)", 84],
  ["CSCC[C@H](NC(=O)c1ccc(CN2CC[C@H]2COCC2CCCCC2)cc1-c1ccccc1C)C(=O)O [Example 1114]", "protein farnesyltransferase (Rattus norvegicus, UniProt Q02293+Q04631)", 83],
  ["CSCC[C@H](NC(=O)c1ccc(CN2OCCC2COC2CCCCC2)cc1-c1ccccc1C)C(=O)O (some centres unmarked) [Example 1130]", "protein farnesyltransferase (Rattus norvegicus, UniProt Q02293+Q04631)", 88],
  ["CSCC[C@H](NC(=O)c1ccc(CP(=O)(CC2CCCCC2)CC2CCCCC2)cc1-c1ccccc1C)C(=O)O [Example 1214]", "protein farnesyltransferase (Rattus norvegicus, UniProt Q02293+Q04631)", 92],
  ["CSCC[C@H](NC(=O)c1ccc(CN2CCOC[C@@H]2COCC2CCCCC2)cc1-c1ccccc1C)C(=O)O [Example 1109]", "protein farnesyltransferase (Rattus norvegicus, UniProt Q02293+Q04631)", 74],
  ["CSCC[C@H](NC(=O)c1ccc(CC(CCC2CCCCC2)S(=O)(=O)c2ccccc2)cc1-c1ccccc1C)C(=O)O (some centres unmarked) [Example 1302, Lithium Salt]", "protein farnesyltransferase (Rattus norvegicus, UniProt Q02293+Q04631)", 93],
  ["CCCCP(=O)(Cc1ccc(C(=O)N[C@@H](CCSC)C(=O)O)c(-c2ccccc2C)c1)CC1CCCCC1 (some centres unmarked) [Example 1213]", "protein farnesyltransferase (Rattus norvegicus, UniProt Q02293+Q04631)", 79],
  ["CCCCN(CC1CCCCC1)OCc1ccc(C(=O)N[C@@H](CCSC)C(=O)O)c(-c2ccccc2C)c1 [Example 1186]", "protein farnesyltransferase (Rattus norvegicus, UniProt Q02293+Q04631)", 93],
  ["CSCC[C@H](NC(=O)c1ccc(Cc2nnnn2Cc2ccccc2)cc1-c1ccccc1C)C(=O)O [Example 1099]", "protein farnesyltransferase (Rattus norvegicus, UniProt Q02293+Q04631)", 87],
  ["CSCC[C@H](NC(=O)c1ccc(CP(=O)(CCC2CCCCC2)CCC2CCCCC2)cc1-c1ccccc1C)C(=O)O [Example 1219]", "protein farnesyltransferase (Rattus norvegicus, UniProt Q02293+Q04631)", 85],
  ["CSCC[C@H](NC(=O)c1ccc(Cc2nnn(CC3CCCCC3)n2)cc1-c1ccccc1C)C(=O)O [Example 1102]", "protein farnesyltransferase (Rattus norvegicus, UniProt Q02293+Q04631)", 84]
]}

Provenance of the data: patent US6221865A
